Taken from patent US20220289753A1.

tested on: ERK phosphorylation in KYSE-520 cells; experiment: Phospho-ERK cellular assay (Advanced phospho-ERK1/2 (Thr202/Tyr204) TR-FRET kit); assay type: cell-based; settings: Homo sapiens, KYSE-520, 2 h, KYSE-520 cells, 2 h at 37° C., TR-FRET; read-out: pERK IC50
pIC50: −log10 of the molar value.
readout: pIC50

| smi | pIC50 |
| --- | --- |
| CC(C)(C)S(=O)(=O)N[C@@H]1c2cccnc2CC12CCN(c1nc3nc(Sc4cccnc4C(F)(F)F)cnc3[nH]1)CC2 | < 5.30 |
| CC1(N)CCN(c2nc3ncc(Sc4cccc(Cl)c4Cl)nc3[nH]2)CC1 | 5.30 to 6.00 |
| N[C@@H]1c2ccccc2CC12CCN(c1[nH]c3ncc(Sc4cccc(Cl)c4Cl)nc3c1Cl)CC2 | 5.30 to 6.00 |

Prompt line: Query pIC50 for Cc1nccc(Sc2cnc3nc(N4CCC5(CC4)Cc4ccccc4[C@H]5N)[nH]c3n2)c1Cl
Response line: > 6.00

Prompt line: Identify pIC50 associated with the compound N#Cc1ccc2c(c1)[C@H](N)C1(CCN(c3nc4nc(Sc5ccnc(N)c5Cl)cnc4[nH]3)CC1)C2
Response line: > 6.00

Prompt line: State its pIC50 for this compound: N[C@@H]1c2ccccc2CC12CCN(c1nc3nc(Sc4cc(Cl)nn5ccnc45)cnc3[nH]1)CC2
Response line: 5.30 to 6.00

Prompt line: Please supply the value of reported pIC50 for the item N#CC1CN(c2nccc(Sc3cnc4[nH]c(N5CCC6(CC5)Cc5ccccc5[C@H]6N)nc4n3)c2Cl)C1
Response line: > 6.00
